assay: qHTS assay to identify small molecule agonists of the constitutive androstane receptor (CAR) signaling pathway - cell viability counter screen (AID 1224836); details: HepG2-CYP2B6-hCAR viability, CellTiter-Fluor, 23 h, PK11195 added to every well; series mostly up to 92.4 µM; also: % is scaled to controls: 0 for no effect and ±100 for the full control effect; nearly all actives have a fitted effect of over 45% in size
Records with an inconclusive call do not appear. Activity calls are given as the source filed them. Calls follow the shape of the dose curve; as a rule, active = well fitted cell-killing curve with a large enough effect in the repeat runs; inconclusive = weak or mixed curves, or effect the other way; inactive = flat fitted curve, though single readings scatter.
endpoint label: viability change, negative = cytotoxic

INSERT INTO assay_data (compound, result) VALUES
  ('CCOc1ccc(NC(=O)CC(C)=O)cc1', 'inactive'),
  ('CC(O)C1CCCCC1 (centres undefined)', 'inactive'),
  ('CCOC(=O)CC(C)C', 'inactive'),
  ('Cc1cccc(Oc2ccccc2)c1', 'inactive'),
  ('COc1cc(C(C)(C)C)c(O)c(C(C)(C)C)c1', 'inactive'),
  ('CC(=O)N(CC(=O)N(C)C)c1ccccc1', 'inactive'),
  ('Cc1occc1S', 'inactive'),
  ('C=CC[N+]1([C@H]2C[C@H]3[C@@H]4CC[C@H]5C[C@H](OC(C)=O)[C@@H](N6CCCCC6)C[C@]5(C)[C@H]4CC[C@]3(C)[C@H]2OC(=O)CC)CCCCC1', 'inactive'),
  ('Cc1ccccn1', 'inactive'),
  ('O=C(O)/C=C/c1cnc[nH]1', 'inactive'),
  ('NCCCOCCOCCOCCCN', 'inactive'),
  ('Cc1ccc(C(=O)C(C)CN2CCCCC2)cc1 (centres undefined)', 'inactive'),
  ('CC[C@H](C)[C@H](N)C(=O)O', 'inactive'),
  ('CCCCCCCCCCCCCCCBr', 'inactive');

* * *

assay: qHTS assay for identifying genotoxic compounds that show differential cytotoxicity against isogenic chicken DT40 cell lines with known DNA damage response pathways - wild type cell line (AID 743012); conditions: DT40 wild type chicken cells viability, CellTiter-Glo, 40 h; series mostly up to 68.4 µM; also: nearly all actives have a fitted effect of over 60% in size
Inconclusive results are not listed. Active and inactive are the calls of the source. The call rests on the fitted dose curve; in most records, active means well fitted cell-killing curve with a large enough effect in the repeat runs; inconclusive means weak or mixed curves, or effect the other way; inactive means no such curve, though single readings can be large or run the other way.
Possible outcomes: 1 (yes) for active, 0 (no) for inactive

INSERT INTO measurements (compound, category_label) VALUES
  ('Cn1c(NCCN(CCO)CCCc2ccc([N+](=O)[O-])cc2)cc(=O)n(C)c1=O', '0 (no)'),
  ('CCCCCCCCCCCCC(=O)O', '0 (no)'),
  ('CC(=O)O[C@H]1C[C@@H]2CC[C@@H]3[C@H](CC[C@@]4(C)[C@H]3C[C@H]([N+]3(C)CCCCC3)[C@@H]4OC(C)=O)[C@@]2(C)C[C@@H]1N1CCCCC1', '0 (no)'),
  ('CC/C(=C\C(=N/O)C(N)=O)C(C)[N+](=O)[O-] (stereo unspecified)', '1 (yes)'),
  ('CC1=CC(=O)/C(=C(/C)O)C(=O)O1', '0 (no)'),
  ('CC(C)CCCCCCOC(=O)c1ccc(C(=O)OCCCCCCC(C)C)c(C(=O)OCCCCCCC(C)C)c1', '0 (no)');

* * *

Assay: qHTS assay to identify small molecule antagonists of the constitutive androstane receptor (CAR) signaling pathway - cell viability counter screen (AID 1224837); also: nearly all actives have a fitted effect of over 45% in size
Details: HepG2-CYP2B6-hCAR viability, CellTiter-Fluor, 23 h, co-treated with 50 nM CITCO; series mostly up to 92.4 µM
Protocol: National Center for Advancing Translational Sciences [NCATS] NIH Chemical Genomics Center [NCGC] U.S. Environmental Protection Agency [EPA] National Institutes of Environmental Health Sciences [NIEHS] National Toxicology Program [NTP] […] A double-stable (hCAR and CYP2B6-2.2kb) transfected cell line, derived from human hepatoma (HepG2) cells, was utilized for the duration of the quantitative high-throughput screens. […] The fluorescence intensity in the plates was then measured using a ViewLux plate reader.
Records with an inconclusive call do not appear. Calls of active or inactive are those of the source. The call rests on the fitted dose curve; in most records, active means well fitted cell-killing curve with a large enough effect in the repeat runs; inconclusive means weak or mixed curves, or effect the other way; inactive means flat fitted curve, though single readings scatter.
Possible outcomes: 1 = active, -1 = inactive

INSERT INTO assay_data (compound, category_label) VALUES
  ('CN1CCC(=C2c3ccccc3CCc3sccc32)CC1', -1),
  ('CCCCc1cc2ccccc2c(OCCN(C)C)n1', -1),
  ('CCCCCOC(=O)COc1cc(N2C(=O)C3=C(CCCC3)C2=O)c(F)cc1Cl', -1),
  ('CCOC(=S)SSC(=S)OCC', -1),
  ('Cc1cc(C)c(S(=O)(=O)O)cc1N=Nc1cc(S(=O)(=O)O)c2ccccc2c1O', 1),
  ('OCC1CC2CC1C1CCC(CO)C21 (centres undefined)', -1),
  ('N#Cc1cc2ccccc2c2ccccc12', -1),
  ('CC(C)=CCCC(C)CC=O (centres undefined)', -1),
  ('CCOC(=O)[C@H](CCc1ccccc1)N[C@H]1CCc2ccccc2N(CC(=O)O)C1=O', -1),
  ('C=C(C)C(=O)OCCOc1ccccc1', -1),
  ('N#CCc1cccc(C(F)(F)F)c1', -1),
  ('CCCCCCCCC(CO)CCCCCC (centres undefined)', -1),
  ('CCCCCCCCCC=O', -1),
  ('Cc1ccc(C(N)=O)cc1N', -1);

* * *

assay: qHTS assay to identify small molecule antagonists of the peroxisome proliferator-activated receptor gamma (PPARg) signaling pathway - cell viability counter screen (AID 743194); settings: PPARg-bla HEK293H viability, CellTiter-Glo luminescence, 17 h, co-treated with 50 nM rosiglitazone; series mostly up to 62.6 µM; also: % is scaled to controls: 0 for no effect and ±100 for the full control effect; nearly all actives have a fitted effect of over 55% in size
Records with an inconclusive call do not appear. Calls of active or inactive are those of the source. Calls come from the whole dose curve; as a rule, active = well fitted cell-killing curve with a large enough effect in the repeat runs; inconclusive = weak or mixed curves, or effect the other way; inactive = no such curve, though single readings can be large or run the other way.
endpoint label: activity change, negative = cytotoxicity

INSERT INTO assay_data (molecule, endpoint_label, result) VALUES
  ('CCCCC(CC)(CO)CO', 'activity change, negative = cytotoxicity', 'inactive'),
  ('CN1CCC(OC(c2ccccc2)c2ccccc2)CC1', 'activity change, negative = cytotoxicity', 'inactive'),
  ('NCCCN(CCO)CCO', 'activity change, negative = cytotoxicity', 'inactive'),
  ('O=C=NC1CCC(CC2CCC(N=C=O)CC2)CC1 (configuration not stated)', 'activity change, negative = cytotoxicity', 'inactive'),
  ('CC(C(=O)O)c1ccc(-c2ccccc2)c(F)c1 (configuration not stated)', 'activity change, negative = cytotoxicity', 'inactive'),
  ('O=C(Nc1ccccc1)OCC(CN1CCCCC1)OC(=O)Nc1ccccc1 (configuration not stated)', 'activity change, negative = cytotoxicity', 'inactive'),
  ('CC(=O)c1c(C)c([N+](=O)[O-])c(C(C)(C)C)c([N+](=O)[O-])c1C', 'activity change, negative = cytotoxicity', 'inactive'),
  ('Cc1cccc(OCCOc2cccc(C)c2)c1', 'activity change, negative = cytotoxicity', 'inactive'),
  ('Nc1ccc(C(=O)N2CC3CC(CN(Cc4ccccc4)C3)C2)cc1', 'activity change, negative = cytotoxicity', 'inactive'),
  ('O=C(O)c1cccc(N(Cc2cccnc2)c2ccc(OC(F)F)c(OC(F)F)c2)c1', 'activity change, negative = cytotoxicity', 'inactive'),
  ('CC(C)CCCC(C)CCO (configuration not stated)', 'activity change, negative = cytotoxicity', 'inactive'),
  ('CC(C)(Oc1ccc(Cl)cc1)C(=O)OCCCOC(=O)C(C)(C)Oc1ccc(Cl)cc1', 'activity change, negative = cytotoxicity', 'inactive');

* * *

target: Estrogen receptor beta (Homo sapiens); assay: qHTS assay to identify small molecule antagonists of the estrogen receptor beta (ER-beta) signaling pathway (AID 1259378); settings: ER-beta-UAS-bla HEK293T, beta-lactamase FRET ratio, 16 h; series mostly up to 92.4 µM; also: potency is read from the fitted curve at half-maximal effect
Records with an inconclusive call do not appear. The source made the active and inactive calls. Calls come from the whole dose curve; as a rule, active = well fitted inhibition curve with a large enough effect in the signal ratio in the repeat runs (not every such curve was filed as active); inconclusive = weak or mixed curves, or effect the other way; inactive = no such curve, though single readings can be large or run the other way; the % refers to the signal ratio.
endpoint label: Potency

INSERT INTO measurements (molecule, result) VALUES
  ('CC(=O)N(CC(=O)N(C)C)c1ccccc1', 'inactive'),
  ('CCCCCCCCC(CO)CCCCCC (stereo unspecified)', 'inactive'),
  ('CC(C)(C)c1cc(O)c(C(C)(C)C)cc1O', '30.6 µM (active)'),
  ('CC1=CC(=O)/C(=C(/C)O)C(=O)O1', 'inactive'),
  ('O=C(/C=C/c1ccc(O)c(O)c1)O[C@@H]1C[C@](O)(C(=O)O)C[C@@H](O)[C@H]1O', 'inactive'),
  ('CC(=O)[C@@]1(O)CC[C@H]2[C@@H]3C[C@H](C)C4=CC(=O)CC[C@]4(C)[C@H]3CC[C@@]21C', 'inactive'),
  ('CCCc1ccccc1', 'inactive'),
  ('Cc1cccc(OCCOc2cccc(C)c2)c1', 'inactive'),
  ('Cc1ccc(O)c([C@H](CCN(C(C)C)C(C)C)c2ccccc2)c1', 'inactive'),
  ('CC[C@H](C)[C@H](N)C(=O)O', 'inactive'),
  ('Cc1ccccn1', 'inactive'),
  ('CCN(CC)CCOC(=O)C1(c2ccccc2)CCCC1', 'inactive'),
  ('CCN(CC)C(C)CN1c2ccccc2Sc2ccccc21 (stereo unspecified)', 'inactive'),
  ('CCCC(=O)OCC', 'inactive'),
  ('O=C(Cl)c1ccc([N+](=O)[O-])cc1', 'inactive'),
  ('CCOC(=O)C1=C(C)NC(C)=C(C(=O)OC)C1c1cccc([N+](=O)[O-])c1 (stereo unspecified)', 'inactive'),
  ('CC(O)C1CCCCC1 (stereo unspecified)', 'inactive'),
  ('Cn1c(N)nc2nc[nH]c2c1=O', 'inactive'),
  ('CCCCCC(CO)CCC (stereo unspecified)', 'inactive'),
  ('COC(=O)C(C)=O', 'inactive'),
  ('Nc1nc(N)c2nc(CNc3ccc(C(=O)N[C@@H](CCC(=O)O)C(=O)O)cc3)cnc2n1', 'inactive'),
  ('CCN(CC)CCNC(C(=O)OCCC(C)C)c1ccccc1 (stereo unspecified)', 'inactive'),
  ('CCCCOc1cc(C(=O)OCCN(CC)CC)ccc1N', 'inactive'),
  ('CC(C)(C)c1ccc(OCC2CO2)cc1 (stereo unspecified)', 'inactive'),
  ('CCCCOCCOCCOCCOCCO', 'inactive'),
  ('C1CCC2OC2C1 (stereo unspecified)', 'inactive'),
  ('O=C(O)/C=C/c1cnc[nH]1', 'inactive'),
  ('CCc1nn(C2CCCCC2)c2cc(C3(C#N)CCC(C(=O)O)CC3)ccc12 (stereo unspecified)', '13.7 µM (active)'),
  ('CCOc1ccc(NC(=O)CC(C)=O)cc1', 'inactive'),
  ('COc1ccc(OC)c(OC)c1', 'inactive'),
  ('CNS(=O)(=O)Cc1ccc2[nH]cc(CCN(C)C)c2c1', 'inactive'),
  ('Cc1ncsc1CCO', 'inactive'),
  ('Cc1cc(C)c(S(=O)(=O)O)cc1N=Nc1cc(S(=O)(=O)O)c2ccccc2c1O', 'inactive'),
  ('CCCC(C)C', 'inactive'),
  ('ClC(Cl)(Cl)c1ccc(C(Cl)(Cl)Cl)cc1', 'inactive'),
  ('Cc1c(Cn2ccnc2)c2ccccc2n1CCC(=O)O', 'inactive'),
  ('CCN(CC)C(C)=O', 'inactive'),
  ('O=c1c2ccccc2nnn1CCl', 'inactive'),
  ('CC(CN)CCCN (stereo unspecified)', 'inactive'),
  ('CC1(C)[C@H]2CC[C@]1(C)[C@H](O)C2', 'inactive'),
  ('O=C1CCCCCO1', 'inactive'),
  ('Cc1ccc(C)o1', 'inactive'),
  ('CC[C@]12CCCN3CCc4c(n(c5ccccc45)C(=O)C1)[C@@H]32', 'inactive'),
  ('CN1CCC(=C2c3ccccc3C=Cc3ccccc32)CC1', 'inactive'),
  ('CCCCCCCCCCCCCCC1CO1 (stereo unspecified)', 'inactive'),
  ('Nc1cnn([C@@H]2O[C@H](CO)[C@@H](O)[C@H]2O)c(=O)n1', '27.3 µM (active)'),
  ('CC(=O)CC(=O)c1ccccc1', 'inactive'),
  ('CC(C)(C)C(=O)OCOP(=O)(COCCn1cnc2c(N)ncnc21)OCOC(=O)C(C)(C)C', 'inactive'),
  ('CC(C)c1cccc(C(C)C)c1NC(=O)NS(=O)(=O)c1cc(C(C)(C)O)co1', 'inactive'),
  ('S=C(S)NCCNC(=S)S', 'inactive'),
  ('CN(C)CCCOc1nn(Cc2ccccc2)c2ccccc12', 'inactive'),
  ('CCCCCCCCCC(=O)OCC', 'inactive'),
  ('COc1ccccc1OC(=O)Oc1ccccc1OC', 'inactive'),
  ('COc1ccc(C(C)=O)cc1', 'inactive'),
  ('CC(C)(C)c1cc(CCC(=O)OCC(COC(=O)CCc2cc(C(C)(C)C)c(O)c(C(C)(C)C)c2)(COC(=O)CCc2cc(C(C)(C)C)c(O)c(C(C)(C)C)c2)COC(=O)CCc2cc(C(C)(C)C)c(O)c(C(C)(C)C)c2)cc(C(C)(C)C)c1O', 'inactive'),
  ('Cc1ccc(C(=O)C(C)CN2CCCCC2)cc1 (stereo unspecified)', 'inactive');
